assay: Drug concentration in plasma of CB17 SCID mouse xenografted with human MCF7 cells harboring ESR1 D538G mutant at 10 mg/kg, po qd for 3 days and measured after 6 hrs last dose by LC-MS/MS analysis; format: ADME, organism-based; conditions: time 3 day
PARAMETER_MEASURED: concentration at 72 h (ng/mL)
Lab book: enter the figure in ng/mL, no units written.

Measured concentration at 72 h, C[C@@H]1Cc2c(ccc3[nH]ncc23)[C@@H](c2c(F)cc(N3CCC4(CCN(C(=O)CN5Cc6cc7c(cc6C5)C(=O)N(C5CCC(=O)NC5=O)C7=O)CC4)CC3)cc2F)N1CC(F)F (stereo partly specified) : 609

====

biological target: Protein cereblon/Estrogen receptor (Homo sapiens, UniProt P03372+Q96SW2); assay: Protac activity at human ERalpha in human MCF7 cells assessed as induction of ERalpha degradation by measuring maximum efficacy at 1 uM incubated for 12 hrs by ICW blot assay relative to control; format: cell-based
Sequence (P03372 whole entry, looked up): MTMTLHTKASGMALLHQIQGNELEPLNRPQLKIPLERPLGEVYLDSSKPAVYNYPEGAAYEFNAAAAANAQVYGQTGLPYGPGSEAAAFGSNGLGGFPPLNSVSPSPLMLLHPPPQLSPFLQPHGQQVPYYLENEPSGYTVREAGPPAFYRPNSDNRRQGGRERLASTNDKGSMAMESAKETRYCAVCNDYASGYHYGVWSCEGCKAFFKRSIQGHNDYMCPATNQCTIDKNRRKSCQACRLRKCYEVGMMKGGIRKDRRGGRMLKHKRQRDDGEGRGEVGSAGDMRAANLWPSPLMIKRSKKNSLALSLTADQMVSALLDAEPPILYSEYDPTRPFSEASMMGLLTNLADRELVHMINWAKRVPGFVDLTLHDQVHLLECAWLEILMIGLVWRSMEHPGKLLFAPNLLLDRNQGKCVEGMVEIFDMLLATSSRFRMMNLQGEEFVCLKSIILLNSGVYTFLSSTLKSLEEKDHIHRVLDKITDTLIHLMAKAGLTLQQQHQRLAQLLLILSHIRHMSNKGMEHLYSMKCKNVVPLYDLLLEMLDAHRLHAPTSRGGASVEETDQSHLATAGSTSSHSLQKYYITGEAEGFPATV
Sequence (Q96SW2 whole entry, looked up): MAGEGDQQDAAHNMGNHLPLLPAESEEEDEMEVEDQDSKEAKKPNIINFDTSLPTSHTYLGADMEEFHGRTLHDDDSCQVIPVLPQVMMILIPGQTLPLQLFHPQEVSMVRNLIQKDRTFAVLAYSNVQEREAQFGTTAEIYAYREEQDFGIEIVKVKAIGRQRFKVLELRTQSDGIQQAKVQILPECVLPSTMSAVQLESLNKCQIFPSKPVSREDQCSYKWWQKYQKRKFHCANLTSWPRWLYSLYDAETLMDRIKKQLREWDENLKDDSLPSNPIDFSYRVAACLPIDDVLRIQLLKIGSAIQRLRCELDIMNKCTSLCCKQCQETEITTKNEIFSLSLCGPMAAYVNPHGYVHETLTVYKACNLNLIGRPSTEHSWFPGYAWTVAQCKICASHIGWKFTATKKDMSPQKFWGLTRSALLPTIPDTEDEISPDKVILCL
PARAMETER_MEASURED: Emax

Measured Emax, O=C1CCC(N2C(=O)c3cc4c(cc3C2=O)CN(CC2CCN(C(=O)C3CCN(c5ccc([C@@H]6c7ccc(O)cc7CC[C@@H]6c6ccccc6)cc5)CC3)CC2)C4)C(=O)N1 (stereo not given in full) : 76%

Measured Emax, O=C1CCC(N2C(=O)c3cc4c(cc3C2=O)CN(C2CCN(C(=O)C3CCN(c5ccc([C@@H]6c7ccc(O)cc7CC[C@@H]6c6ccccc6)cc5)CC3)CC2)C4)C(=O)N1 (stereo not given in full) : 95%

Measured Emax, O=C1CCC(N2C(=O)c3cc4c(cc3C2=O)CN(CC(=O)N2CC3(CCN(c5ccc([C@@H]6c7ccc(O)cc7CC[C@@H]6c6ccccc6)cc5)C3)C2)C4)C(=O)N1 (stereo not given in full) : 63%

Measured Emax, O=C1CCC(N2C(=O)c3cc4c(cc3C2=O)CN(CCCCCC2CCN(c3ccc([C@@H]5c6ccc(O)cc6CC[C@@H]5c5ccccc5)cc3)CC2)C4)C(=O)N1 (stereo not given in full) : 106%

Measured Emax, O=C1CCC(N2C(=O)c3cc4c(cc3C2=O)CN(CCC2CCN(c3ccc([C@@H]5c6ccc(O)cc6CC[C@@H]5c5ccccc5)cc3)CC2)C4)C(=O)N1 (stereo not given in full) : 50%

====

assay: Drug concentration in tumor of CB17 SCID mouse xenografted with human MCF7 cells harboring wild type ESR1 at 10 mg/kg, po qd for 3 days and measured after 24 hrs last dose by LC-MS/MS analysis; type: ADME, organism-based, Neoplasm; details: time 3 day, read-out: Ct
PARAMETER_MEASURED: concentration at 72 h
Just the number plus its unit, please.

Measured concentration at 72 h, C[C@@H]1Cc2c(ccc3[nH]ncc23)[C@@H](c2c(F)cc(N3CCC4(CCN(C(=O)CN5Cc6cc7c(cc6C5)C(=O)N(C5CCC(=O)NC5=O)C7=O)CC4)CC3)cc2F)N1CC(F)F (stereo partly specified) : 162 ng/mL

====

assay: Plasma concentration in Sprague-Dawley rat at 3 mg/kg,po and mesured after 1 hrs by LC-MS/MS analysis; assay type: ADME, organism-based
PARAMETER_MEASURED: concentration at 1 h (ng/mL)
Lab book: enter the figure in ng/mL, no units written.

Measured concentration at 1 h, C[C@@H]1Cc2c([nH]c3ccccc23)[C@@H](c2c(F)cc(N3CCC4(CCN(C(=O)CN5Cc6cc7c(cc6C5)C(=O)N(C5CCC(=O)NC5=O)C7=O)CC4)CC3)cc2F)N1CC(F)(F)CO (some centres not stated) : 9.3

Measured concentration at 1 h, C[C@@H]1Cc2c([nH]c3ccccc23)[C@@H](c2c(F)cc(N3CCC4(CCN(C(=O)CN5Cc6cc7c(cc6C5)C(=O)N(C5CCC(=O)NC5=O)C7=O)CC4)CC3)cc2F)N1CC(C)(C)F (some centres not stated) : 7.9
